All figures here come from ChEMBL document CHEMBL1961873.

target: Ephrin type-A receptor 2 (Homo sapiens) (UniProt P29317); settings: at 1 µM;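 further: value is the mean inhibition of EPHA2, measured in the GSK PKIS screen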
Sequence (P29317 whole entry): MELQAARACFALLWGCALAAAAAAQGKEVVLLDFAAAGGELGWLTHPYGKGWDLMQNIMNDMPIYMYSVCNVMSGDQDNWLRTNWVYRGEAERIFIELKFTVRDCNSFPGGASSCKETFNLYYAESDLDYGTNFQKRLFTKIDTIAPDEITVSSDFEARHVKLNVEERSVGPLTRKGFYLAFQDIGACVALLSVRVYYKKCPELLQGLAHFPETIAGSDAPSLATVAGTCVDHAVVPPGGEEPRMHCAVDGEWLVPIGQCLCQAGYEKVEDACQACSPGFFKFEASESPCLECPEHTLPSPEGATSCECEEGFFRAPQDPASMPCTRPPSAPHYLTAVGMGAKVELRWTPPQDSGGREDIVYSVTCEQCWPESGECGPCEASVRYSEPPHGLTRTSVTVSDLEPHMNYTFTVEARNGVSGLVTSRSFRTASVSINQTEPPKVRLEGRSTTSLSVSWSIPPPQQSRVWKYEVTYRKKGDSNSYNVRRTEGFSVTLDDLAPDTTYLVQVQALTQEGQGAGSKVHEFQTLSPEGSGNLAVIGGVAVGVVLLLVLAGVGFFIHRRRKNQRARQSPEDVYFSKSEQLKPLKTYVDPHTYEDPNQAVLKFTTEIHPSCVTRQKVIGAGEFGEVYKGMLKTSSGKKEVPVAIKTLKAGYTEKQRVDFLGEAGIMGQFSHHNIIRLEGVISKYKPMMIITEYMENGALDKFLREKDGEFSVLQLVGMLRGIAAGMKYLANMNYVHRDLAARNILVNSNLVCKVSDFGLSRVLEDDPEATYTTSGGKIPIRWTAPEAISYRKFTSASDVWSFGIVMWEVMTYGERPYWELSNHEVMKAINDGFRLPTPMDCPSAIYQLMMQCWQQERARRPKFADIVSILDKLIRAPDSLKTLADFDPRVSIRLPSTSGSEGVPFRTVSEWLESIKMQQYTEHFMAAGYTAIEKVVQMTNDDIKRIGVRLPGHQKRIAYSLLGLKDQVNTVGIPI
observable: inhibition (%)

smilesData	testedSystem	resultValue
N#Cc1c(NC(=O)CN2CCOCC2)sc2c1CCCC2	Ephrin type-A receptor 2 (Homo sapiens) (UniProt P29317)	1.43
CCc1nn2ncccc2c1-c1ccnc(NC2CC2)n1	Ephrin type-A receptor 2 (Homo sapiens) (UniProt P29317)	0.58
Fc1ccc(-c2nn3ncccc3c2-c2ccnc(Nc3ccc4c(c3)OCCO4)n2)cc1	Ephrin type-A receptor 2 (Homo sapiens) (UniProt P29317)	14.4
Fc1cccc(COc2ccc(Nc3ncnc4sc(-c5ccco5)cc34)cc2Cl)c1	Ephrin type-A receptor 2 (Homo sapiens) (UniProt P29317)	1.92
CC(C)(CO)CNC(=O)c1ccc2c(c1)/C(=N/Nc1ccc(S(N)(=O)=O)cc1)C(=O)N2	Ephrin type-A receptor 2 (Homo sapiens) (UniProt P29317)	-2.69
CCn1cc(-c2ccnc3[nH]ccc23)c(-c2cccc(NC(=O)Nc3ccc(OCc4ccccc4)cc3)c2)n1	Ephrin type-A receptor 2 (Homo sapiens) (UniProt P29317)	0.05
CNC(=O)c1cncc(/C=C/c2ccccc2Cl)c1	Ephrin type-A receptor 2 (Homo sapiens) (UniProt P29317)	2.6
CCn1c(-c2nonc2N)nc2c(C#CC(C)(C)O)nc(OC[C@H](N)c3ccccc3)cc21	Ephrin type-A receptor 2 (Homo sapiens) (UniProt P29317)	-0.31
COc1ccc(-c2cc3c(N)ncnc3o2)cc1	Ephrin type-A receptor 2 (Homo sapiens) (UniProt P29317)	-2.53
Nc1nc(-c2ccc(F)cc2)c(-c2ccc3ncccc3n2)s1	Ephrin type-A receptor 2 (Homo sapiens) (UniProt P29317)	0.59
Nc1ncc(-c2cccc(S(N)(=O)=O)c2)c2scc(-c3ccc(F)c(Cl)c3)c12	Ephrin type-A receptor 2 (Homo sapiens) (UniProt P29317)	89.7
CS(=O)(=O)CCNCc1ccc(-c2ccc3ncnc(Nc4ccc(OCc5ccccc5)c(C(F)(F)F)c4)c3c2)o1	Ephrin type-A receptor 2 (Homo sapiens) (UniProt P29317)	0.59
CCN(CC)S(=O)(=O)c1ccc(OC)c(Nc2ncc(-c3ccccc3)o2)c1	Ephrin type-A receptor 2 (Homo sapiens) (UniProt P29317)	2.14
NS(=O)(=O)c1ccc(N/N=C2\C(=O)Nc3ccc4ncccc4c32)cc1	Ephrin type-A receptor 2 (Homo sapiens) (UniProt P29317)	9.56
FC(F)(F)c1cccc(-c2nn3ncccc3c2-c2ccnc(Nc3ccc4c(c3)OCCO4)n2)c1	Ephrin type-A receptor 2 (Homo sapiens) (UniProt P29317)	1.84
COC(=O)c1sc(-n2cnc3cc(OC)c(OC)cc32)cc1OCc1ccccc1C(F)(F)F	Ephrin type-A receptor 2 (Homo sapiens) (UniProt P29317)	3.86
CCCN1CCC(c2ccc(Nc3nc(Nc4cc(F)ccc4C(N)=O)c4cc[nH]c4n3)c(OC)c2)CC1	Ephrin type-A receptor 2 (Homo sapiens) (UniProt P29317)	-0.82
